Target: recombinant human cGAS (aa147-522) (Homo sapiens, UniProt Q8N884)
Construct: recombinant human cGAS (aa147-522); His6-SUMO (cleaved yes); made in house; host or cells: E. coli BL21/pLys
Sequence (Q8N884 147-522): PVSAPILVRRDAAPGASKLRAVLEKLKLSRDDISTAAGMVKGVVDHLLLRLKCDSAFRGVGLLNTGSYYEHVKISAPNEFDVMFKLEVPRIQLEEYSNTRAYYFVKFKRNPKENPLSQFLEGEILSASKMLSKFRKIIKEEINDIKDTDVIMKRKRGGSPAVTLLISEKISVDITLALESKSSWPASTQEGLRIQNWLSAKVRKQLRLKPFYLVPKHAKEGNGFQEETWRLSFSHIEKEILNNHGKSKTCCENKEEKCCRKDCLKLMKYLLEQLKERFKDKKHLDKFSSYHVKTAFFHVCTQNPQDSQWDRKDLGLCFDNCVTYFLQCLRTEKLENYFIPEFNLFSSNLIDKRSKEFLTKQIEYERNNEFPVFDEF
Test: In vitro inhibition assay of cGAS activity (ATP consumption, KinaseGlo Max)
Format: biochemical
Settings: Table 3, read-out: cGAS Inhibition Results IC50
IC50 values by entry

molecule	result
O=C(O)CCOC[C@@H]1CCCN1c1cc(-n2ccnc2)c2cc(Br)c(Cl)c(Cl)c2n1 [I-857]	< 2000 nM
O=C(O)[C@@H]1C[C@@H](N2CCOCC2)CN1c1cc(-n2ccnc2)c2ccc(Cl)c(Cl)c2n1 [I-518]	< 2000 nM
COC(=O)[C@@H]1C[C@H]2C[C@H]2N1c1cc(-n2ccnc2)c2ccc(Cl)c(Cl)c2n1 [I-591]	2000 to 30000 nM

# input molecule: CON(C)C(=O)[C@@H]1CCCN1c1cc(-n2ccnc2)c2ccc(Cl)c(Cl)c2n1 [I-542] ; wanted: its IC50
2000 to 30000 nM

Field request: IC50 | item: COC(=O)c1cccc(S(=O)(=O)NCCN(C)c2cc(-n3ccnc3)c3ccc(Cl)c(Cl)c3n2)c1 [I-609]
> 30000 nM

For the molecule shown here, O=C(O)CC[C@@H]1CCCN1c1cc(-n2ccnc2)c2ccc(Cl)c(Cl)c2n1 [I-679] , give the reported IC50.
< 2000 nM

Look up IC50: COC(=O)[C@@H]1[C@@H](O)CCN1c1cc(-n2ccnc2)c2ccc(Cl)c(Cl)c2n1 [I-596]
2000 to 30000 nM
